Observation type: melting point

Please review the following examples before continuing.
INSERT INTO results (smiles_record, observation_type, reported_result) VALUES
  ('Cc1cc(Nc2nc(N3CCC(C)CC3)nc(C)c2N)n[nH]1', 'melting point', '172 to 175 °C'),
  ('Cc1cc(Nc2nc(N3CCC4(CC3)OCCO4)nc3ccccc23)[nH]n1', 'melting point', '191 °C'),
  ('Cc1cc(Nc2n[nH]c3ccccc23)nc(-c2ccccc2C(F)(F)F)n1', 'melting point', '235 to 237 °C'),
  ('CCSc1ccc(-c2nc(Nc3cc(C)n[nH]3)c3ccccc3n2)cc1', 'melting point', '229 to 231 °C'),
  ('Cc1cc(Nc2nc(-c3cccc(I)c3)nc3ccccc23)[nH]n1', 'melting point', '234 to 235 °C'),
  ('Cc1cc(Nc2nc(N3CCC(C)CC3)nc3ccccc23)[nH]n1', 'melting point', '148 to 150 °C'),
  ('COCCCc1cc(Nc2nc(-c3ccccc3)nc3ccccc23)[nH]n1', 'melting point', '169 to 170 °C'),
  ('Cc1cc(Nc2nc(N3CCC(CCO)CC3)nc3ccccc23)[nH]n1', 'melting point', '175 °C'),
  ('Cc1cc(Nc2nc(-c3ccc(Cl)c(Cl)c3)nc3ccccc23)[nH]n1', 'melting point', '274 °C'),
  ('c1ccc(-c2nc(Nc3ncn[nH]3)c3ccccc3n2)cc1', 'melting point', '266 to 267 °C');

[in] // melting point lookup, key: Cc1cc(Nc2cc(-c3ccccc3)nc3ccccc23)n[nH]1
[out] 242 to 244 °C

[in] # input compound: c1ccc(-c2nc(Nc3cc(C4CC4)[nH]n3)c3ccncc3n2)cc1 ; wanted: its melting point
[out] 232 to 233 °C

[in] What does the record list as melting point for Cc1cc(Nc2ccnc(N3CCC(C)CC3)n2)n[nH]1 ?
[out] 215 to 216 °C

[in] Look up melting point for this compound: c1ccc(-c2nc(Nc3cc(C4CCCC4)n[nH]3)c3ccccc3n2)cc1
[out] 240 to 241 °C

[in] Requested read-out: melting point. Entry: Cc1cc(Nc2nc(N3CCC(C)CC3)ncc2[N+](=O)[O-])[nH]n1
[out] 185 to 187 °C

[in] What value of melting point has been recorded for this entry: c1ccc(COCCCc2cc(Nc3nc(-c4ccccc4)nc4ccccc34)[nH]n2)cc1
[out] 177 to 178 °C

[in] Report melting point for CCc1cc(Nc2nc(-c3ccccc3)nc3ccccc23)[nH]n1 please.
[out] 221 to 222 °C

[in] If you can, please state the reported melting point value of c1ccc(-c2nc(Nc3cc(C4CC4)n[nH]3)c3ccccc3n2)cc1 .
[out] 218 to 219 °C

[in] Given the entry Cc1nc(-c2ccccc2C(F)(F)F)nc(Nc2n[nH]c3ccc(F)cc23)c1C , report its measured melting point.
[out] 160 to 163 °C

[in] # get_value(readout='melting point', item= COCc1cc(Nc2nc(-c3ccccc3)nc3ccccc23)[nH]n1 )
[out] 190 to 191 °C
